system: Bacteroides fragilis; assay: Antibacterial activity against Bacteroides fragilis after 20 hrs by broth microdilution method; format: functional
value-type: MIC

Check out these entries, answers already filled in.
| molecule | value-type | observed-value |
| --- | --- | --- |
| Cn1c[n+](Cc2ccccc2)c2c(N)ncnc21.[Cl-] | MIC | > 32 µg/mL |
| CC(C)=CCC/C(C)=C\CC/C(C)=C/C[n+]1cn(C)c2nc[nH]/c(=N\OCc3ccccc3)c21 | MIC | 4 µg/mL |

Lab note: each molecule below needs its MIC filled in.
1. CO/N=c1\[nH]cnc2c1[n+](C/C=C(\C)CC/C=C(\C)CC/C=C(\C)CCC=C(C)C)cn2C
2. Cc1ncc([N+](=O)[O-])n1CCO
3. CO/N=c1\[nH]cnc2c1[n+](C/C=C(\C)CC/C=C(\C)CCC=C(C)C)cn2C
4. CC(C)=CCC/C(C)=C/CC/C(C)=C/CC/C(C)=C/C[n+]1cn(C)c2nc[nH]/c(=N\OCc3ccccc3)c21
5. CO/N=c1\[nH]cnc2c1[n+](C/C=C(\C)CC/C=C(/C)CCC=C(C)C)cn2C

1. 8 µg/mL
2. 0.5 µg/mL
3. 16 µg/mL
4. 8 µg/mL
5. 32 µg/mL

Reference source: ChEMBL document CHEMBL1148008
